tested target: recombinant full-length PfCSP (Plasmodium falciparum circumsporozoite protein, strain NF54) (Plasmodium falciparum NF54, UniProt P19597)
Sequence (P19597 20-375): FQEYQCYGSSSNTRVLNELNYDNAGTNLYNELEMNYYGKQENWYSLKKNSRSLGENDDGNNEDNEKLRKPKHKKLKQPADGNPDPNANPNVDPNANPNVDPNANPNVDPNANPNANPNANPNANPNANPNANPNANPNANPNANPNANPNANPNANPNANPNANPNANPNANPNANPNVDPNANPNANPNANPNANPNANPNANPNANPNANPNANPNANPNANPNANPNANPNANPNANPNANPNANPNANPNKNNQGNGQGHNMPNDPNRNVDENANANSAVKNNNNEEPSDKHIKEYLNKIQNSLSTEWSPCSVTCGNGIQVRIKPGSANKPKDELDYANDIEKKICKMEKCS

binder	binding result
CL-510499 (antibody, V domains shown) VH: QVQLVESGGGLVQPGRSLTLSCAASGFTFSNYGMHWVRQTPGKGLEWVALIRYDGSYKFYADSVKGRFTISRDNSKNTLYLQMNSLRAEDTAIYFCARDGDYSNSAGDFDYWGQGTLVTVSS VL: EIVLTQSPGTLSLSPGERATLSCRASQSVSSTNLAWYQQKPGQAPRLLIYGVSSRATGIPDRFSGSGSGTDFTLTINRLEPEDFAVYYCQQHGRSFTFGPGTKVEIK	binds
CL-515284 (antibody, V domains shown) VH: QVQLVGSGGGVVQSGRSLRLSCAASGFTFSNFGMHWVRQTPDKGLEWLAIIWYDGSHKFYVDSVKGRFTISRDNSMNTLFLQMNSLRAEDTGVYYCVRSWNYADSKYGMDVWGQGTTVTVSS VL: DIQMTQSPSTLSASVGDRVTITCRASQSISSWLAWYQQKPGKAPNLLIYKASSLESGVPSRFSGSGSGTEFTLTISSLQPDDFATYYCQQYYNYWTFGQGTKVEIK	binds

// data source = paper PMC10720262
